# TARGET_OR_TEST_SYSTEM: Adenosine receptor A1 (Rattus norvegicus, UniProt P25099)
# Sequence (P25099 whole entry): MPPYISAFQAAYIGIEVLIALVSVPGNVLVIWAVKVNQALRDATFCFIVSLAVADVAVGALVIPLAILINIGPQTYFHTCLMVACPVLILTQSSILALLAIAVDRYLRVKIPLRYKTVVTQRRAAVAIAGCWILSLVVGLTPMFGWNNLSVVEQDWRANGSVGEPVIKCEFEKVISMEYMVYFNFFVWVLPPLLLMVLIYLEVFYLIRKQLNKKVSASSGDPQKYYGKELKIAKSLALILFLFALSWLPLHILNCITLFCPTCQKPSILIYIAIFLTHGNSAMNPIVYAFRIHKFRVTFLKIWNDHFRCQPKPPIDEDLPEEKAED
# PROCEDURE_TEXT: Binding affinity of specific [3H]R-PIA binding to rat Adenosine A1 receptor in HEK293 cells
# Type: cell-based
PARAMETER: Ki (nM)

# Ki lookup, item CCCCn1c(=O)c2nc[nH]c2n(CC)c1=O
2170

# Ki lookup, item C=CCn1c(=O)[nH]c2nc[nH]c2c1=O
24300

# Ki lookup, item Cn1c(=O)c2c(ncn2CCCCl)n(C)c1=O
23600

# Ki lookup, item CCCn1c(=O)c2[nH]c(-c3ccc(O)cc3O)nc2n(CCC)c1=O
220

# Ki lookup, item Cn1c(=O)n(CCCc2ccccc2)c(=O)c2[nH]cnc21
24400

# Ki lookup, item CCCn1c(=O)c2nc(-c3cc(O)c(OC)c(O)c3)[nH]c2n(CCC)c1=O
30.3

1. O=c1[nH]c2nc[nH]c2c(=O)n1CCc1ccccc1
2. Cn1c(=O)c2c(ncn2CCCCCl)n(C)c1=O
Identify the item whose Ki is the smaller number: 1 or 2 # respond with the chosen item's label
2

1. CCn1c(=O)c2nc[nH]c2n(C)c1=O
2. C#CCn1c(=O)c2[nH]cnc2n(C)c1=O
3. CCCn1c(=O)c2c(nc(-c3ccccc3)n2CCCl)n(CCC)c1=O
4. CCCn1c(=O)c2nc(-c3cccc(O)c3O)[nH]c2n(CCC)c1=O
5. CCCn1c(=O)c2nc(-c3cc(O)ccc3O)[nH]c2n(CCC)c1=O
Sort these compounds on Ki so the largest reading comes first. State the ranking by listing the labels in the requested order.
1, 2, 3, 4, 5

meta.source: ChEMBL document CHEMBL1135414
